# Tested on: NCI-H513 (Other Solid Carcinomas);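 also: after 72 h of two-drug dosing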
# assay-details: Bliss excess, mean over the matrix (fraction); higher = more synergy
Outcome label depends on Bliss excess relative to -0.02: at/above gives yes, below gives no.

>>> class("COc1cccc(OCCCN)c1-c1cc(Nc2cnc(C#N)cn2)n[nH]1 [Prexasertib] + C=CCn1c(=O)c2cnc(Nc3ccc(N4CCN(C)CC4)cc3)nc2n1-c1cccc(C(C)(C)O)n1 [AZD1775] (first compound max 1 µM, partner max 1 µM)")
"yes"
>>> class("Cc1cc2ncnn2cc1Nc1ncc2c(n1)n(C1CCOCC1)c(=O)n2C [AZD7648] + O=C(c1cc(Cc2n[nH]c(=O)c3ccccc23)ccc1F)N1CCN(C(=O)C2CC2)CC1 [Olaparib] (first compound max 10 µM, 7x7, partner max 10 µM)")
"yes"
>>> class("CC1(C)CCC(CN2CCN(c3ccc(C(=O)NS(=O)(=O)c4ccc(NCC5CCOCC5)c([N+](=O)[O-])c4)c(Oc4cnc5[nH]ccc5c4)c3)CC2)=C(c2ccc(Cl)cc2)C1 [Venetoclax] + C[C@@H](Nc1cc(F)cc(F)c1)c1cc(C(=O)N(C)C)cc2c(=O)cc(N3CCOCC3)oc12 [AZD8186] (first compound max 1 µM, 7x7, partner max 3 µM)")
"no"
>>> class("CN(C)CCCOc1ccc(-c2ccc3ncc4c(c3c2)n(C2CCOCC2)c(=O)n4C)cn1 [AZD0156] + C[C@@H]1COCCN1C2=NC(=NC(=C2)C3(CC3)[S@](=N)(=O)C)C4=C5C=CNC5=NC=C4 [AZD6738] (first compound max 1 µM, 7x7, partner max 10 µM)")
"yes"
>>> class("CC1(C)CCC(CN2CCN(c3ccc(C(=O)NS(=O)(=O)c4ccc(NCC5CCOCC5)c([N+](=O)[O-])c4)c(Oc4cnc5[nH]ccc5c4)c3)CC2)=C(c2ccc(Cl)cc2)C1 [Venetoclax] + C1CN(CCC1(C(=O)N[C@@H](CCO)C2=CC=C(C=C2)Cl)N)C3=NC=NC4=C3C=CN4 [Capivasertib] (first compound max 1 µM, 7x7, partner max 3 µM)")
"no"
